A compilation of pIC50 values for Amine oxidase [flavin-containing] A (Homo sapiens) from the published literature.
pIC50: −log10 of the molar value.

Past entries and their recorded results:
                                   compound  experimental_endpoint  result_value
0      NC(=O)CNC(=O)c1ccc(OCc2cccc(F)c2)cn1                  pIC50          5.04
1  O=C(Nc1ccc([C@@H]2C[C@H]2NCc2ccccc2)cc1)c1cccc(C(F)(F)F)c1 (relative stereo)                  pIC50          5.24
2  CC1(C(=O)N2CC(C#Cc3ccc4c(=O)c(-c5ccc(NS(C)(=O)=O)cc5)coc4c3)C2)CC1                  pIC50        < 3.89
3  CS(=O)(=O)Nc1ccc(-c2coc3cc(C#CC4CC4)ccc3c2=O)cc1                  pIC50        < 4.89
4  CS(=O)(=O)Nc1ccc(-c2coc3cc(C#CC4CCOCC4)ccc3c2=O)cc1                  pIC50        < 3.89
5  CCCCCCCCN[C@@H]1C[C@H]1c1ccc(NC(=O)c2ccccc2)cc1 (relative stereo)                  pIC50          5.03
6  CC(C)OC(=O)c1cccc(COc2ccc3c(=O)n(-c4ccc(O)cc4)cnc3c2)c1                  pIC50        < 5.00
7   CCSCCN1C(=O)c2ccc(OCc3ccc(F)cc3)cc2C1=O                  pIC50        < 5.00
8  Cc1nccc(Cl)c1C(=O)NCc1ccc(-c2cccc(=O)[nH]2)nc1                  pIC50        < 5.00
9        COC1CCN(c2ncc(OC/C(=C/F)CN)cn2)CC1                  pIC50        < 4.30

Field: pIC50 (Amine oxidase [flavin-containing] A (Homo sapiens)). Entry: COc1ccc(CN[C@@H]2C[C@H]2c2ccc(NC(=O)c3cccc(Br)c3)cc2)cc1OC (relative stereo) < 5.00

Field: pIC50 (Amine oxidase [flavin-containing] A (Homo sapiens)). Entry: `Cc1cccc(Cl)c1C(=O)NCc1ccc(N2CCNC(=O)C2)nc1` < 5.00
